- Tested on: human red blood cells
- test_protocol: Cytotoxicity: hemolysis of human red blood cells
- Assay type: cell-based
No end group written: not given here.
experimental_endpoint: Hemolytic activity of human red blood cells (%) SC50

Below, each entry is followed by its recorded Hemolytic activity of human red blood cells (%) SC50 result.
[
  {
    "substance": "GLYNFIKVLGRTVFGLYKQF-NH2 [At04]",
    "result": ">128 µM"
  },
  {
    "substance": "GSLHGFMYKYLKNMVLTLF-NH2 [At01]",
    "result": ">128 µM"
  },
  {
    "substance": "GFKLGRKLVKVFKWII-NH2 [Gr01]",
    "result": "64 µM"
  }
]

Exam item: Enter reported Hemolytic activity of human red blood cells (%) SC50 observed with human red blood cells for GSLHGFMYKYLKTLVLRLY-NH2 [Zm01]
Marked response: >128 µM

Exam item: Moving on to the next substance: GSLHGFMYKYLKNMVLNLF-NH2 [Tc06]
Marked response: >128 µM

Exam item: Moving on to the next substance: GFKDLLKGAAKALVKTVLF-NH2 [Asc-8, Ascaphin-8, reference compound]
Marked response: 16 µM

Exam item: Moving on to the next substance: GAKLAKKQVRALGKFFSF-NH2 [At03]
Marked response: >128 µM

Exam item: Moving on to the next substance: GLLFKELQKLIRYQIFIGK-NH2 [Tc10]
Marked response: >128 µM
